# Assay Name: Pharmacokinetic study in humans, sodium salt tablets, multiple dose (Example 3)
# Assay type: in vivo, human
# Test Conditions: human, plasma, oral, 200 mg, 200 mg Dose Group, tablet once daily, Day 21, Median; read-out: Clast
Measured Parameter: concentration at 24 h

> print(dat)
                                 smiles.str  measured.value
1  O=C(Nc1nc(=O)n(Cc2ccc(Cl)cc2)s1)c1ccc(Cl)cc1      76.9 µg/mL

----------
# Assay Name: Pharmacokinetic study in humans, sodium salt tablets, multiple dose (Example 3)
# Format: in vivo, human
# Test Conditions: human, plasma, oral, 400 mg, 400 mg dose group (424.24 mg sodium salt tablet once daily), 24 h after dose of Day 1; read-out: Clast at 24 hours, Mean
Measured Parameter: concentration at 24 h (ng/mL)

> print(dat)
                                 smiles.str     measured.parameter  quantity.unit  measured.value
1  O=C(Nc1nc(=O)n(Cc2ccc(Cl)cc2)s1)c1ccc(Cl)cc1  concentration at 24 h          ng/mL           24900

Values compiled from patent US20240082222A1.
